Would you kindly list protein stability index for each of these variants?
B1: NCK2 (parent)
chain: YTGPSSSGRFAGREWYYGNVTRHQ

# Variants of: B1
# experiment-summary: protein stability index of a GFP-peptide fusion (GPS, HEK-293T) (PSI 1-6); higher = more stable;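 note: lentivirally expressed fusions sorted by FACS into six bins by GFP to DsRed ratio, PSI derived from sequencing read proportions per bin multiplied by bin number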
# experimental-parameters: c terminus: a fixed tail appended
One number for each entry.

Solved entries (count: 10):
mutant-id	protein stability index
Y16C	2.03
G8S	2.22
G18C	2.35
R22H	1.33
T2R	1.67
Q24M	2.44
Y1N	2.73
T2G	2.44
S7R	1.82
N19M	3.08

Quick batch: protein stability index for everything below.
1. S6K
2. N19T
3. S7Q
4. T2M
5. G3K
6. W15A
7. W15Q

1. 2.35
2. 2.44
3. 2
4. 2.62
5. 2.08
6. 2.49
7. 2.36

Quick batch: protein stability index for everything below.
1. T21C
2. Y1M
3. W15L

1: 2.37; 2: 2.57; 3: 1.77

Quick batch: protein stability index for everything below.
1. Y17L
2. Q24W

1. 1.58
2. 2.83
